test system: MOLT-4 leukemia; assay: NCI-60 one-dose screen, 48 h (100 = growth as untreated, 0 = no growth, -100 = all killed); details: 10 µM unless noted
About 83,000 compounds went through this panel and 20% of them were active in at least one assay; those are over-represented in the sample as a whole.
REPORTED_ENDPOINT: growth (%)

- Brc1ccc(SCN(CSc2ccc(Br)cc2)Cc2ccccc2)cc1: 17
- COc1ccc(CSc2nc3cc(OC)c(OC)cc3c(=O)n2-c2ccc(Cl)cc2)cc1: 101
- Cc1nc2cc(Nc3nc(Nc4ccc(F)cc4)nc(-c4ccc(Cl)cc4)n3)ccc2n1Cc1ccccc1: 0.841
- Cc1ccccc1-c1cc(-c2ccc(Br)s2)[nH]c(=O)c1C#N: 92.7
- O=C1c2ccccc2-c2nnc(-c3ccc(Br)cc3)cc21: 4.61
- O=S(=O)(Nc1ccccc1Cl)c1ccc(-c2cnc(C3CC3)o2)cc1: 40.9

====

system: NCI-H322M lung; experiment: NCI-60 one-dose screen, 48 h (100 = growth as untreated, 0 = no growth, -100 = all killed); conditions: 10 µM unless noted
The panel holds about 83,000 compounds, 20% with a hit somewhere; the sample as a whole holds those more often.
REPORTED_ENDPOINT: growth (%)

• NC(=O)c1cc(I)ccc1NC(=O)COc1ccccc1 = 48.3
• Nc1nc(N)c(C=Nc2ccc(Br)cc2)c(Nc2ccc(Br)cc2)n1 = 72.9
• CC1(C)CC(=O)C2=C(C1)Nc1cc3c(cc1C2c1ccc(F)cc1)OCO3 (stereo not given) = 94.8
• CN1CCc2cccc3c2C1Cc1ccc(O)c(O)c1-3 (stereo not given) = 109
• CCCCCn1c(=N)n(CC(O)COc2cccc(C)c2)c2ccccc21 (stereo not given) = 14
• OC[C@@H](O)[C@@H](O)CO = 105
• Cc1ccc2nc(NC(=O)CSC(=S)N3CCN(C)CC3)sc2c1 = 106
• CCOC(=O)C1=C(C)N2C(=NC3=C(CCCC/C3=C\c3ccccc3)C2c2ccccc2)S1 (stereo not given) = 92
• Cc1nc2ccc(Cl)cc2n1C = 108
• COC(=O)CCC(=O)c1ccccc1 = 119
• COc1ccc(/C=N/NC(=O)c2cnn3c2NC(c2ccccc2)C3)cc1OC1CCCC1 (stereo not given) = 101
• COC(=O)c1c2c(c(C)[n+]([O-])c1C)C(=O)C=C(NCc1ccc(Cl)cc1)C2=O = -7.11
• O=[N+]([O-])c1ccc(C=C2C(Cl)=C(Cl)C(Cl)=C2Cl)cc1 = 121
• O=C(N/N=C/c1ccc(OC(F)F)c(OC2CCCC2)c1)c1cnn2c1NC(c1ccccc1)C2 (stereo not given) = 92.6
• FC(F)(F)Oc1ccc2c(c1)C[C@H]1C[C@@H](c3ccoc3)N2O1 = 117
• COc1cc(CNCCCN2C(=O)c3ccc4c5c(ccc(c35)C2=O)C(=O)N(CCCNCc2cc(OC)c(OC)c(OC)c2)C4=O)cc(OC)c1OC = -24.2
• CCOC(=O)c1c(-c2cc(OC)c(OC)c(OC)c2)csc1N = 99.4
• Nc1cccc2c(=S)c3ccccc3[nH]c12 = 92.1
• Nc1cc2[nH]c(=O)c3ccccc3c2cc1Br = 86
• CN1CCN(c2nc(-c3ccncc3)nc3sc4c(c23)CCCCCC4)CC1 = 86.6
• Cc1ccc(-c2nnc(COc3ccc(-c4nnc(N)s4)cc3)o2)cc1 = 95.9
• Nc1nc2c(s1)CCc1c-2c(Br)n(Cc2ccccc2)c1Br = 99.8
• COc1ccc(C2=NOC(CC(=O)N(CCO)CCO)C2)cc1OC1CCCC1 (stereo not given) = 107
• CCC(C)[C@H]1O[C@]2(CC[C@@H]1C)C[C@@H]1C[C@@H](C/C=C(\C)[C@@H](OC3C[C@H](OC)C(O[C@H]4C[C@H](OC)[C@@H](O)[C@H](C)O4)[C@H](C)O3)[C@@H](C)/C=C/C=C3\CO[C@@H]4[C@H](O)C(C)=C[C@@H](C(=O)O1)[C@]34O)O2 (stereo not given in full) = 52.7
• CNc1ccc(Br)cc1-c1n[nH]c(=O)[nH]c1=O = 115
• O=C(C[Si](CC(=O)c1cccc(C(F)(F)F)c1)CC(=O)c1cccc(C(F)(F)F)c1)c1cccc(C(F)(F)F)c1 = 74.5
• Cc1ccc(NS(=O)(=O)c2ccc(-c3cnc(C4CC4)o3)cc2)cc1 = 69
• C=C1CC[C@@H]2[C@@](C)(CCC[C@]2(C)C(=O)O)[C@@H]1CC[C@H](CO)CCO = 101
• CC(=O)OC[C@]1(C)C=C2C(=O)[C@](C)(O)C3(CC3)C(C)=C2[C@H]1OC(C)=O = 98.5
• O=C1CC(c2ccsc2)c2snc(-c3ccc(Cl)cc3)c2N1 (stereo not given) = 55.7
• CC1SC(c2ccc(Cl)cc2)N(CCc2cccs2)C1=O (stereo not given) = 21.7
• COc1ccc(/C=C2\CN(Cc3cn(CCCNc4ccnc5cc(Cl)ccc45)nn3)C/C(=C\c3ccc(OC)c(OC)c3)C2=O)cc1OC = 22.7
• O=c1c2c(=NCCN3CCCC3)cc3c(=O)n(CCCN4CCOCC4)c(=O)c4ccc(c(O)n1CCCN1CCOCC1)c2c4-3 = -10.8
• Brc1ccc(Br)nn1 = -97.4
• c1ccc(-c2nc(N3CCOCC3)c3c4c(sc3n2)CCCCCC4)nc1 = 73
• N#CC1=C(N)Oc2cc(N)ccc2C1c1ccc(F)cc1 (stereo not given) = 82.6
• NC(=O)c1cc(I)ccc1NC(=O)COc1ccc(Cl)cc1Cl = 98.5
• COc1ccc(-c2nc3sc(C)cn3c2/C=C/C(=O)c2cc(OC)c(OC)c(OC)c2)cc1 = 76.1
• COc1cccc(C2C3=C(COC3=O)N(CCO)c3cc4c(cc32)CCC4)c1 (stereo not given) = 30.3
• CN1CCN(c2ccc3nc(-c4ccc5nc(-c6ccc(C(F)(F)F)cc6)[nH]c5c4)[nH]c3c2)CC1 = 80.1

====

system: CCRF-CEM leukemia; test: NCI-60 one-dose screen, 48 h (100 = growth as untreated, 0 = no growth, -100 = all killed); details: 10 µM unless noted
The panel holds about 83,000 compounds, 20% with a hit somewhere; the sample as a whole holds those more often.
Listed compounds paired with reported growth
REPORTED_ENDPOINT: growth (%)

- CCSc1nnc2c3cc(Br)ccc3n(C)c2n1: 102
- CCCCCCCC/C=C\CCCCCCCCOc1cccc(CC(=O)NCC[N+]2(C)CCCC2)c1: 51.6
- O=c1c2c(=NCCN3CCCC3)cc3c(=O)n(CCCN4CCOCC4)c(=O)c4c(-c5ccc(CN6CCCC6)cc5)cc(c(O)n1CCCN1CCOCC1)c2c4-3: -4.42
- O=C(Nc1ccc(Cl)c(Cl)c1)OCn1ncc2ccc([N+](=O)[O-])cc21: 81.8

====

Test system: M14 melanoma
Experiment: NCI-60 one-dose screen, 48 h
Conditions: 10 µM unless noted
Description: Growth inhibition of the M14 human tumor cell line is measured as a screen for anti-cancer activity. Cells are grown in 96 well plates and exposed to the test compound for 48 hours. Compounds are tested at a single concentration, which is 10^-5 M for most compounds. The reported endpoint is percent growth (GI% or GIPRCNT), where numbers from 0 - 100% represent growth inhibition, and numbers from -100% - 0 represent cell death. For example, a value of 40 represents 60% growth inhibition. […]
Compounds without any hit were thinned out: in the full panel of roughly 83,000, 20% have a hit. The source made the active and inactive calls. How the source made its calls: active means growth percent below 10; inactive means the rest.
Labels: true (1) for active, false (0) for inactive

• Cc1ccc(C2SCC(=O)N2NC(=O)c2[nH]c3ccc(F)cc3c2-c2ccccc2)cc1 (stereo unspecified) = false (0)
• CSC1=CC(=O)c2ccccc2C1=O = false (0)
• Nc1c(Br)cc(Br)cc1-c1n[nH]c(=O)[nH]c1=O = false (0)
• COc1cc(C2=NN(c3ccc(S(N)(=O)=O)cc3)C(c3ccc(Cl)cc3)C2)cc(OC)c1OC (stereo unspecified) = false (0)
• c1ccc(-c2n(Cc3ccc4ccccc4c3)c3ccccc3[n+]2Cc2ccc3ccccc3c2)cc1 = true (1)
• CCOC(=O)c1c(-c2cc(OC)c(OC)c(OC)c2)csc1N = false (0)
• CC(=O)OC[C@]1(C)C=C2C(=O)[C@](C)(O)C3(CC3)C(C)=C2[C@H]1OC(C)=O = false (0)
• COCCOC1=C(Cl)C(=O)c2ccccc2C1=O = false (0)
• CCN(CC)c1ccc2c(c1)OS(=O)(=O)N=C2 = false (0)
• c1ccc(-c2nc(N3CCOCC3)c3c4c(sc3n2)CCCCCC4)nc1 = false (0)
• Cc1c(C(=O)Nc2nc(-c3ccccc3)cs2)nnn1-c1cccc2ccccc12 = false (0)

====

system: RXF 393 renal; test: NCI-60 one-dose screen, 48 h (100 = growth as untreated, 0 = no growth, -100 = all killed); conditions: 10 µM unless noted
This is part of a sample that, as a whole, favours compounds with a hit. Of some 83,000 tested, about 20% had one in any assay.
REPORTED_ENDPOINT: growth (%)

• Cc1ccc2nc(NC(=O)CSC(=S)N3CCN(C)CC3)sc2c1 = 105
• COC1(OC)C2(Cl)C=C(c3ccccc3)C1(Cl)C(Cl)=C2Cl (centres undefined) = 104
• CN1CCN(CCCn2c3c(sc4ncccc43)c(=O)n3nnc(-c4ccccc4)c23)CC1 = 75.3
• COc1ccc(-c2csc3c2-n2cccc2C3=O)cc1O = 31.3
• C[C@@H](Oc1cc(-c2cnn(C3CC4(CNC4)C3)c2)cnc1N)c1c(Cl)ccc(F)c1Cl = 21.7
• CN(C)c1ccc(/C=C(\C#N)c2cc3ccccc3n2C)cc1 = 10.5
• CCOC(=O)c1[nH]c2cc(Cl)ccc2c1[C@@H](C(=O)NC(C)(C)C)N(CC)C(=O)CCCCC#Cc1cccc2c1CN(C1CCC(=O)NC1=O)C2=O (some centres undefined) = -1.34
• O=S(=O)(OCCO)c1ccccc1 = 98.1
• Cc1cc(=O)oc2c1ccc1oc(C(=O)c3ccccc3)c(C)c12 = 99.8
• COc1cc(C(F)(F)F)ccc1-c1cc(-c2ccc(F)cc2)n[nH]1 = 92.4
• C=CC(=O)N1CC2(CCC(n3nc(-c4ccc(Oc5ccccc5)cc4)c4c(N)ncnc43)CC2)C1 = -94.9
• Cc1c(C)n(CC(O)CNC2CCCCC2C)c2ccccc12 (centres undefined) = -90.2
• COc1ncc(F)c(OC)n1 = 105
• COc1cc(-c2nc3ccccc3o2)cc(CN2CCN(c3ccccc3)CC2)c1O = 107
• COc1ccc(-c2nc3sc(C)cn3c2/C=C/C(=O)c2cc(OC)c(OC)c(OC)c2)cc1 = 84.5
• Cc1cccc2c(=O)c3c(sc12)c(NCCNCCO)nc1ccccc13 = 38.1
• COc1ccc(NC(=O)c2ccc3c(c2)nc(-c2ccc(Cl)cc2)n3-c2cc(C(C)(C)C)[nH]n2)cc1 = 79.1
• Cc1ccc(S(=O)(=O)N2CCc3ccc(O)c4c3C2CCc2ccccc2-4)cc1 (centres undefined) = 117
• ONc1nc(NO)c2[nH]cnc2n1 = 86.1
• Cc1cc(=O)c2c(C)ccc(C)c2[nH]1 = 90.7
• COc1ccc(OC2=C(C#N)C(=N)N3c4ccccc4Sc4ccccc4C3N2)cc1 (centres undefined) = 78
• c1ccc(-c2n(Cc3ccc4ccccc4c3)c3ccccc3[n+]2Cc2ccc3ccccc3c2)cc1 = -39.4
• CC(=O)Nc1ccc(Sc2ccc([N+](=O)[O-])o2)cc1 = -57.1
• O=S(=O)(Nc1ccccc1Cl)c1ccc(-c2cnc(C3CC3)o2)cc1 = -27
• O=C1/C(=C/c2ccc(Oc3ccccc3)cc2)N=C(c2ccccc2)N1CCc1cccs1 = 92.1
• Fc1ccccc1Nc1ccc2nnc(-c3ccncc3)n2n1 = 113
• COc1ccc(-c2[nH]ncc2Nc2cc(OC)c(OC)c(OC)c2)cc1 = 20.5
• Cc1nn(CC(=O)O)c2c1C(=O)CC(C)(C)C2 = 117
• COc1ccc(-n2c(SCc3cc(OC)c(OC)c(OC)c3)nc3ccc(C)cc3c2=O)c(OC)c1 = 19.6
• Oc1ccc2ccccc2c1C1NN=C(c2ccccc2)S1 (centres undefined) = 67
• Cc1nc2cc(Nc3nc(Nc4ccc(F)cc4)nc(N4CCCC4)n3)ccc2n1Cc1ccccc1 = -83.5
• NC(=O)c1cc(I)ccc1NC(=O)COc1ccccc1 = 8.03
• Cc1ccc2c(N/N=C\c3ccco3)cc(C)nc2n1 = 63.7
• COc1ccc(C2SC(C)C(=O)N2CCc2cccs2)cc1OC (centres undefined) = 86.1
• COc1ccc(OC)c2ncccc12 = 107
• COc1cc(/C=N/NC(=O)c2cnn3c2NC(c2ccccc2)C3)ccc1OC1CCCC1 (centres undefined) = -27.9
• COc1cccc(C2CC(=O)Nc3cc4c(cc32)OCO4)c1OC (centres undefined) = 87
• Cc1nc2cc(Nc3nc(N4CCCCC4)nc(N4CCOCC4)n3)ccc2n1Cc1ccccc1 = -5.84
• CC1CCCCN1S(=O)(=O)c1ccc(CN=C=S)cc1 (centres undefined) = 51.9
• O=c1c2cc(F)ccc2oc2c(NCCNCCO)nc3ccccc3c12 = 34.3
• COc1ccc(/C=C/C(=O)N2CCC(O)CC2)cc1OC1CCCC1 = 118
• O=C1CC2c3cc(-c4cc5ccccc5o4)ccc3CCN2C(=O)N1c1ccccc1 (centres undefined) = 114
• O=C(Nc1ccc(Cl)c(Cl)c1)OCn1ncc2ccc([N+](=O)[O-])cc21 = 83.2
• O=C(N/N=C(\CS(=O)(=O)c1ccccc1)c1cc2cc(Br)ccc2oc1=O)c1ccccc1 = 126
